Assay: NCI Yeast Anticancer Drug Screen. Data for the cln2 rad14 strain (AID 165)
Conditions: S. cerevisiae cln2 rad14 strain, at 50.0 µM, active compounds read high
The panel holds about 79,000 compounds, 15% with a hit somewhere; the sample as a whole holds those more often.
Output fulfilled for growth inhibition not less than -10%; output not fulfilled otherwise.

>>> print(df.to_string())
                                    compound          class
 0                    CC[N+](C)(CC)CCOC(C)=O      fulfilled
 1                      C=CCOc1c(C)cc(C)cc1C  not fulfilled
 2  COCCCC12C=C(OC)C(=O)C=C1OC(c1cc(OC)c(OC)c(OC)c1)C2C (stereo not given)  not fulfilled
 3                CC(C)(C)OC(=O)CC1(O)CCCCC1      fulfilled
 4  O=C1CC2(CCCC2)C(=O)N1c1cccc([N+](=O)[O-])c1      fulfilled
 5  CC1=C(C(=O)Nc2ccccc2)C(c2ccccc2)C(C(=O)Nc2ccccc2)=C(C)N1      fulfilled
 6   COC(CCCl)c1ccc(C)cc1 (stereo not given)      fulfilled
 7  ClC(Cl)(Cl)C(N1CCN(c2ccccc2)CC1)N1CCN(c2ccccc2)CC1  not fulfilled
 8                 O=C1CCCNc2c(Br)cc(Br)cc21      fulfilled
 9  CC/C(C)=C1\OC(=O)C(C)C(O)C(Cc2cccnc2)NC(=O)C(NC(=O)c2ncccc2O)C(C)OC1=O (stereo not given)  not fulfilled
10  N#CCCNC(CC(=O)O)C(=O)O (stereo not given)  not fulfilled
11  CC(C)(C)C1CCC(=NO)CC1 (stereo not given)      fulfilled
12          CCCCCCCCCCCC(=O)N/N=C/c1ccccc1OC  not fulfilled
13  O=C(Nc1ccc(NC(=O)OCc2ccccc2)c(Cl)c1)OCc1ccccc1  not fulfilled
14  COc1ccc(-c2cc(C(O)C3CCCCN3)c3ccccc3n2)cc1 (stereo not given)      fulfilled
